test: Selectivity index, ratio of IC50 for MRC5 cells to IC50 for Trypanosoma brucei brucei 427 […]; type: toxicity, cell-based; conditions: read-out: Ratio IC50
readout: selectivity ratio

O=C(OCCCCCCCCO)OCCc1ccc(O)c(O)c1    > 35
O=C(OCCCCOC(=O)OCCc1ccc(O)c(O)c1)OCCc1ccc(O)c(O)c1    > 13
O=C(OCCc1ccc(O)c(O)c1)OCCc1ccc(O)c(O)c1    > 39
CCCCCCOC(=O)OCCc1ccc(O)c(O)c1    62

I would be grateful if you could provide selectivity ratio for each of the following entries.
1. O=C(OCCCCCCO)OCCc1ccc(OCc2ccccc2)c(OCc2ccccc2)c1
2. CCCCCCCCCCCCCCOC(=O)OCCc1ccc(O)c(O)c1
3. CCOC(=O)OCCc1ccc(O)c(O)c1
4. O=C(OCCOC(=O)OCCc1ccc(O)c(O)c1)OCCc1ccc(O)c(O)c1
5. O=C(OCCCCCCOC(=O)OCCc1ccc(O)c(O)c1)OCCc1ccc(O)c(O)c1

> 12
6
25
> 13
> 24

I would be grateful if you could provide selectivity ratio for each of the following entries.
1. CCCCCCCCOC(=O)OCCc1ccc(O)c(O)c1
2. CCCCCCCCCCCCOC(=O)OCCc1ccc(O)c(O)c1

1. 72
2. 12

I would be grateful if you could provide selectivity ratio for each of the following entries.
1. O=C(OCCCCCCCCOC(=O)OCCc1ccc(O)c(O)c1)OCCc1ccc(O)c(O)c1
2. O=C(OCCCCCCO)OCCc1ccc(O)c(O)c1

> 50
> 12

The reported numbers originate from ChEMBL document CHEMBL4196180.
